# Tested on: ACHN renal
# test_protocol: NCI-60 one-dose screen, 48 h (100 = growth as untreated, 0 = no growth, -100 = all killed)
# conditions_used: 10 µM unless noted
Compounds without any hit were thinned out: in the full panel of roughly 83,000, 20% have a hit. Calls of active or inactive are those of the source. How the source made its calls: active means growth percent below 10; inactive means the rest.

| molecule | growth |
| --- | --- |
| CCOC(=O)C(=CNc1ccccc1[N+](=O)[O-])C(=O)OCC | 86% (inactive) |
| Cn1ccc(Cc2cnc(N)s2)n1 | 99.8% (inactive) |
| Cc1cc(=O)[nH]c(N/N=C/c2cc(Br)ccc2O)n1 | 14.5% (inactive) |
| C[C@@H]1CC[C@@H]2[C@@H]1[C@H](OC(=O)/C=C/c1ccccc1)[C@]1(C3CCCCC3)C[C@@H](NC(=O)CO)[C@@]2(C)O1 | 50.2% (inactive) |
| Cc1ccc(/C=C(\C#N)n2nnc3cc(Cl)c(Cl)cc32)cc1 | 25.7% (inactive) |
| COc1ccc(-c2nnc(SCC(=O)NC3=NN=C(c4ccccc4)CS3)o2)cc1 | 99.6% (inactive) |
| CSc1nc2sc3cc(Cl)ccc3n2c(=N)c1C#N | 78.9% (inactive) |
| CCC(=O)OC1=C(C)SC2=NC(c3ccc(Cl)c(Cl)c3)=CC(c3cc(OC)c(OC)c(OC)c3)N21 (stereo not given) | 102% (inactive) |
| OC(c1cccc(OCc2ccccc2)c1)c1nnc(-c2ccccc2)o1 (stereo not given) | 92.6% (inactive) |
| C[C@]12CCC(=O)C[C@H]1CC[C@@H]1[C@@H]2CC[C@@]2(C)[C@H]1CC[C@]2(O)C(=O)CO | 96.7% (inactive) |

----------
# System: OVCAR-5 ovarian
# test_protocol: NCI-60 one-dose screen, 48 h (100 = growth as untreated, 0 = no growth, -100 = all killed)
# conditions_used: 10 µM unless noted
The panel holds about 83,000 compounds, 20% with a hit somewhere; the sample as a whole holds those more often.
Just a reminder that ties go to rule not met: only growth strictly below 80% counts as rule met.

| compound | answer_label |
| --- | --- |
| Clc1ccc2c(NCCCN3CCN(c4nc(-n5ccnc5)nc5ccccc45)CC3)ccnc2c1 | rule not met |
| CCCN1CCN(c2ccc3nc(-c4ccc5nc(-c6ccc(OCC)c(OCC)c6)[nH]c5c4)[nH]c3c2)CC1 | rule met |
| O=C(c1ccccc1)c1ccc(N2C(=O)C3C4c5ccccc5C(/C=C/C(=O)c5ccccn5)(c5ccccc54)C3C2=O)cc1 (stereo not given) | rule met |
| O=C1C(Cl)C(c2ccccc2Cl)N1n1cnnc1 (stereo not given) | rule not met |
| CN(C)c1ccc(/C=N/NC(=O)COc2cc(=O)n(C)c3ccccc23)cc1 | rule not met |
| CN(C)CCC(O)(Cc1ccccc1)c1ccccc1 (stereo not given) | rule not met |
| NC(N)=N/N=C/CO | rule not met |
| CCCCNC(=O)NS(=O)(=O)c1ccc(N2N=C(c3ccc(C)cc3C)CC2c2ccc(N(C)C)cc2)cc1 (stereo not given) | rule not met |

----------
# System: NCI/ADR-RES ovarian
# test_protocol: NCI-60 one-dose screen, 48 h (100 = growth as untreated, 0 = no growth, -100 = all killed)
# conditions_used: 10 µM unless noted
Compounds without any hit were thinned out: in the full panel of roughly 83,000, 20% have a hit.
# Lookup of reported growth keyed by entry

| compound | system_tested | growth (%) |
| --- | --- | --- |
| COc1cc(C2CC(c3ccc(Nc4nc(Nc5ccc(F)cc5)nc(Nc5ccc(Cl)cc5)n4)cc3)=NN2C(C)=O)cc(OC)c1OC (stereo not given) | NCI/ADR-RES ovarian | 69.8 |
| CS(=O)(=O)c1ccc(-c2[nH]c3ccc(F)cc3c2/C=N/O)cc1 | NCI/ADR-RES ovarian | 107 |
| Cc1nn(Cc2ccccc2)cc1C(=O)Nc1sc2c(c1C(N)=O)CCC(=O)C2 | NCI/ADR-RES ovarian | 72 |
| C[C@]12CCC(=O)C[C@H]1CC[C@@H]1[C@@H]2CC[C@@]2(C)[C@H]1CC[C@]2(O)C(=O)CO | NCI/ADR-RES ovarian | 107 |
| COc1cc2c(cc1OC)-c1ccc3cc4c(cc3c1N(CCN1CCCC1)C2)OCO4 | NCI/ADR-RES ovarian | 60.7 |
| Clc1ccc(-c2nnc(-c3ccco3)o2)cc1 | NCI/ADR-RES ovarian | 104 |
| Cc1nc(Nc2ccc(N)cc2)c2ccccc2n1 | NCI/ADR-RES ovarian | 93.6 |
| CC(C)(C)Nc1c(-c2c3ccccc3cc3ccccc23)nc2ccccn12 | NCI/ADR-RES ovarian | 82.9 |
| CN(C)c1cnccn1 | NCI/ADR-RES ovarian | 88.6 |
| Cc1cc(=O)[nH]c(N/N=C/c2cc(Br)ccc2O)n1 | NCI/ADR-RES ovarian | 10.2 |

----------
# System: T-47D breast
# test_protocol: NCI-60 one-dose screen, 48 h
# conditions_used: 10 µM unless noted
About 83,000 compounds went through this panel and 20% of them were active in at least one assay; those are over-represented in the sample as a whole. Active and inactive are the calls of the source. The calls were made as follows: active = growth percent below 10; inactive = the rest.
Labels: TRUE for active, FALSE for inactive

| molecule | answer_label |
| --- | --- |
| COc1ccc(C(=O)/C=C/C23c4ccccc4C(c4ccccc42)C2C(=O)NC(=O)C23)cc1 (configuration not stated) | FALSE |
| O=C1C2=C(CCN(Cc3ccccc3)C2)N2CCN=C2N1Cc1ccc(F)cc1F | FALSE |
| CCC(C)NCc1ccccc1 (configuration not stated) | FALSE |
| COc1ccc(C2CC(c3cnccn3)=NN2)cc1OC (configuration not stated) | FALSE |
| COc1ccc(-c2nc3ncccn3c2/C=C/C(=O)c2cc(OC)c(OC)c(OC)c2)cc1 | FALSE |
| NC(N)=N/N=C(/c1ccccc1)c1ccccc1F | TRUE |
| Cc1ccc(Nc2ccc(Nc3ccc(C)cc3S(=O)(=O)O)c3c2C(=O)c2ccccc2C3=O)c(S(=O)(=O)O)c1 | FALSE |
| COc1cc2ccccc2cc1C(=O)NC(=S)Nc1ccc(-c2nc3ccccc3[nH]2)cc1 | FALSE |
| CC/C=C/[C@@H]1C=C[C@@H]2CCC[C@H]2[C@@H]1CC[C@H](O)[C@H](C)N | TRUE |
| O=C(NCc1cn(Cc2cccc(Oc3ccccc3)c2)nn1)c1cccnc1NCc1ccc(Cl)cc1 | FALSE |
| CCOC(=O)c1c(C)nc2c(c1N)/C(=C/c1ccc(OC)cc1)C(=O)N2Cc1ccc(F)cc1 | TRUE |
| CC(C)c1ccc(C(=O)OC(=O)c2ccc(C(C)C)cc2)cc1 | FALSE |
| COc1ccc(-c2cc(-c3cc(OC)ccc3O)[nH]c(=O)c2C#N)cc1 | FALSE |
| O=C1Nc2ccc(Cl)cc2/C1=N/N=C/c1c[nH]c2ccccc12 | FALSE |
| O=C1Nc2ccccc2/C1=N/N=C/c1ccsc1 | FALSE |
| CN(C)c1ccc2cc(-c3ccccc3F)c(N)nc2c1 | FALSE |
| CN1C[C@@H](c2ccc(Cl)cc2)[C@]2(NC(=S)N(c3ccc(F)c(Cl)c3)C2=O)[C@@]12C(=O)NC1C=CC(Cl)=C[C@H]12 (some centres not stated) | FALSE |
| Clc1ccc(-c2nc(NCCc3ccccc3)nc3c(NCCc4ccccc4)cnn23)cc1 | FALSE |
| CC1(C)N=C(N)N=C(N)N1c1ccc(Cl)c(Cl)c1 | FALSE |
| CN(C)c1cnccn1 | FALSE |
| CC(C)OCCCNCC(=O)Nc1ccc(S(=O)(=O)c2ccc(NC(=O)CNCCCOC(C)C)cc2)cc1 | FALSE |
| Cc1c(Cl)cccc1NS(=O)(=O)c1ccccc1 | FALSE |

----------
# Lookup of reported growth keyed by entry
# Test system: SK-OV-3 ovarian
# test_protocol: NCI-60 one-dose screen, 48 h (100 = growth as untreated, 0 = no growth, -100 = all killed)
# conditions_used: 10 µM unless noted
This is part of a sample that, as a whole, favours compounds with a hit. Of some 83,000 tested, about 20% had one in any assay.

| compound | quantity_unit | growth |
| --- | --- | --- |
| CCCCOc1ccc(NC(=O)n2nc(N=NN(C)C)c3ccc(Cl)cc32)cc1 | % | 86 |
| COc1cc2c(cc1OC)-c1ccc3cc4c(cc3c1N(CCN1CCCC1)C2)OCO4 | % | -13.5 |
| Cc1cccc(-c2cc(O)c(C(=O)N3CCOCC3)s2)c1 | % | 41.7 |
| CC(C)CCC[C@@H](C)[C@H]1CCC2C3=CCC4C(=O)C=CC(=O)C4C3CC[C@@]21C (stereo not given in full) | % | 10.5 |
| CS(=O)(=O)c1ccc(-c2nc3cc(Cl)ccc3n2CC(=O)N/N=C/c2ccc(Cl)cc2)cc1 | % | 65.8 |
